Assay: Cmax in Balb/c mouse plasma at 2 mg/kg, administered intranasally
Type: ADME, organism-based
Design: route nasal, dose 2 mg/kg
Details: inhaled or intranasal
metric name: Cmax
Answer with the figure and its unit, nothing else.

QUERY: Supply measured Cmax of CC[C@H]1OC(=O)[C@H](C)[C@@H](O[C@H]2C[C@@](C)(OC)[C@@H](O)[C@H](C)O2)[C@H](C)[C@@H](O[C@@H]2O[C@H](C)C[C@H](N(C)C)[C@H]2O)[C@](C)(O)C[C@@H](C)CN(CCCNC(=O)[C@H]2[C@H](C)C[C@H]3[C@@H]4CCC5=CC(=O)C=C[C@]5(C)[C@@]4(F)[C@@H](O)C[C@@]32C)[C@H](C)[C@@H](O)[C@]1(C)O in your reply.
RESULT: 223 ng/mL

----------
Assay: Half life in Balb/c mouse blood at 2 mg/kg, administered intranasally
Type: ADME, organism-based
Set-up: dose 2 mg/kg
Conditions: whole blood, inhaled or intranasal
metric name: half-life (min)
Express your answer in min, writing the number without its unit.

QUERY: Supply measured half-life of CC[C@H]1OC(=O)[C@H](C)[C@@H](O[C@H]2C[C@@](C)(OC)[C@@H](O)[C@H](C)O2)[C@H](C)[C@@H](O[C@@H]2O[C@H](C)C[C@H](N(C)C)[C@H]2O)[C@](C)(O)C[C@@H](C)CN(CCCNC(=O)[C@H]2[C@H](C)C[C@H]3[C@@H]4CCC5=CC(=O)C=C[C@]5(C)[C@@]4(F)[C@@H](O)C[C@@]32C)[C@H](C)[C@@H](O)[C@]1(C)O in your reply.
RESULT: 54

----------
Target: Glucocorticoid receptor (Homo sapiens, UniProt P04150)
Sequence (P04150 whole entry): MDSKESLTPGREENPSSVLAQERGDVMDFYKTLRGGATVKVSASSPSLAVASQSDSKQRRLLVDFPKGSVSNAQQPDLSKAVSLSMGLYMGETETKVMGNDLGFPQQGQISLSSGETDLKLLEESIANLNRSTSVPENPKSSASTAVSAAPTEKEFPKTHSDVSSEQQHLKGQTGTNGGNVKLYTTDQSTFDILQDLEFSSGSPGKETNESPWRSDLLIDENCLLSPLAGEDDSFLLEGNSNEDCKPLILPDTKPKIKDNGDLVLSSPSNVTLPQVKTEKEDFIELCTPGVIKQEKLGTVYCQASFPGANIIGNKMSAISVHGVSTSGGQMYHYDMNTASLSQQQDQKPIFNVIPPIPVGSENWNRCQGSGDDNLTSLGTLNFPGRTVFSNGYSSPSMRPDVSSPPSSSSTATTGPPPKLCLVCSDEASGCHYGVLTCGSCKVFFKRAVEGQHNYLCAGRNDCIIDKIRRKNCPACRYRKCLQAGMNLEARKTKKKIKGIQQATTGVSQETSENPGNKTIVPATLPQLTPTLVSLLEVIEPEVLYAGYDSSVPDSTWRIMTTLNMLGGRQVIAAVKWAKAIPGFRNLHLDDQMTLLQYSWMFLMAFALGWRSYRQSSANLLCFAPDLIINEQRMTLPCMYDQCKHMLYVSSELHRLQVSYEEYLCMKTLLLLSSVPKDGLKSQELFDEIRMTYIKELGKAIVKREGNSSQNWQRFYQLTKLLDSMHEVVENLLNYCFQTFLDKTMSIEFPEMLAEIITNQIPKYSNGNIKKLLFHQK
Experiment: Displacement of [3H]-dexamethasone human glucocorticoid receptor alpha expressed in 293 MSR cells after 60 mins by scintillation counting
Format: cell-based
metric name: pEC50
Just the number, please; pEC50 means minus log10 of the concentration in mol/L.

QUERY: Supply measured pEC50 of CC[C@H]1OC(=O)[C@H](C)[C@@H](O)[C@H](C)[C@@H](O[C@@H]2O[C@H](C)C[C@H](N(C)C)[C@H]2O)[C@](C)(O)C[C@@H](C)CN(CCCNC(=O)[C@@]2(O)[C@H](C)C[C@H]3[C@@H]4C[C@H](F)C5=CC(=O)C=C[C@]5(C)[C@@]4(F)[C@@H](O)C[C@@]32C)[C@H](C)[C@@H](O)[C@]1(C)O in your reply.
RESULT: 5.47

QUERY: Supply measured pEC50 of CC[C@H]1OC(=O)[C@H](C)[C@@H](O[C@H]2C[C@@](C)(OC)[C@@H](O)[C@H](C)O2)[C@H](C)[C@@H](O[C@@H]2O[C@H](C)C[C@H](N(C)C)[C@H]2O)[C@](C)(O)C[C@@H](C)CN(CCCNC(=O)[C@H]2[C@H](C)C[C@H]3[C@@H]4C[C@H](F)C5=CC(=O)C=C[C@]5(C)[C@@]4(F)[C@@H](O)C[C@@]32C)[C@H](C)[C@@H](O)[C@]1(C)O in your reply.
RESULT: 6.28

QUERY: Supply measured pEC50 of CC[C@H]1OC(=O)[C@H](C)[C@@H](O[C@H]2C[C@@](C)(OC)[C@@H](O)[C@H](C)O2)[C@H](C)[C@@H](O[C@@H]2O[C@H](C)C[C@H](N(C)C)[C@H]2O)[C@](C)(O)C[C@@H](C)CN(CCCNC(=O)[C@@]2(O)[C@H](C)C[C@H]3[C@@H]4CCC5=CC(=O)C=C[C@]5(C)[C@@]4(F)[C@@H](O)C[C@@]32C)[C@H](C)[C@@H](O)[C@]1(C)O in your reply.
RESULT: 4.64

----------
Experiment: Cmax in Balb/c mouse lung at 2 mg/kg, administered intranasally
Assay type: ADME, organism-based
Parameters: dose 2 mg/kg, route nasal
Details: inhaled or intranasal
metric name: Cmax (ng/mL)
Express your answer in ng/mL, writing the number without its unit.

QUERY: Supply measured Cmax of CC[C@H]1OC(=O)[C@H](C)[C@@H](O[C@H]2C[C@@](C)(OC)[C@@H](O)[C@H](C)O2)[C@H](C)[C@@H](O[C@@H]2O[C@H](C)C[C@H](N(C)C)[C@H]2O)[C@](C)(O)C[C@@H](C)CN(CCCNC(=O)[C@H]2[C@H](C)C[C@H]3[C@@H]4CCC5=CC(=O)C=C[C@]5(C)[C@@]4(F)[C@@H](O)C[C@@]32C)[C@H](C)[C@@H](O)[C@]1(C)O in your reply.
RESULT: 2410

----------
Molecular target: Glucocorticoid receptor (Homo sapiens)
Experiment: Displacement of [3H]-dexamethasone human glucocorticoid receptor alpha expressed in 293 MSR cells after 60 mins by scintillation counting
Type: cell-based
metric name: EC50 (µM)
Express your answer in µM, writing the number without its unit.

QUERY: Supply measured EC50 of CC[C@H]1OC(=O)[C@H](C)[C@@H](O[C@H]2C[C@@](C)(OC)[C@@H](O)[C@H](C)O2)[C@H](C)[C@@H](O[C@@H]2O[C@H](C)C[C@H](N(C)C)[C@H]2O)[C@](C)(O)C[C@@H](C)CN(CCCNC(=O)[C@H]2[C@H](C)C[C@H]3[C@@H]4CCC5=CC(=O)C=C[C@]5(C)[C@@]4(F)[C@@H](O)C[C@@]32C)[C@H](C)[C@@H](O)[C@]1(C)O in your reply.
RESULT: 0.43

QUERY: Supply measured EC50 of CC[C@H]1OC(=O)[C@H](C)[C@@H](O)[C@H](C)[C@@H](O[C@@H]2O[C@H](C)C[C@H](N(C)C)[C@H]2O)[C@](C)(O)C[C@@H](C)CN(CCCNC(=O)[C@@]2(O)[C@H](C)C[C@H]3[C@@H]4C[C@H](F)C5=CC(=O)C=C[C@]5(C)[C@H]4[C@@H](O)C[C@@]32C)[C@H](C)[C@@H](O)[C@]1(C)O in your reply.
RESULT: 5.91

----------
Assay: AUC (0 to infinity) in Balb/c mouse plasma at 2 mg/kg, administered intranasally
Assay type: ADME, organism-based
Parameters: time infinity, route nasal, dose 2 mg/kg
Details: inhaled or intranasal
metric name: AUC(0-inf) (ng·h/mL)
Express your answer in ng·h/mL, writing the number without its unit.

QUERY: Supply measured AUC(0-inf) of CC[C@H]1OC(=O)[C@H](C)[C@@H](O[C@H]2C[C@@](C)(OC)[C@@H](O)[C@H](C)O2)[C@H](C)[C@@H](O[C@@H]2O[C@H](C)C[C@H](N(C)C)[C@H]2O)[C@](C)(O)C[C@@H](C)CN(CCCNC(=O)[C@H]2[C@H](C)C[C@H]3[C@@H]4CCC5=CC(=O)C=C[C@]5(C)[C@@]4(F)[C@@H](O)C[C@@]32C)[C@H](C)[C@@H](O)[C@]1(C)O in your reply.
RESULT: 181

----------
Kindly state pEC50 for each of the entries shown.
Biological target: Glucocorticoid receptor (Homo sapiens, UniProt P04150)
Test: Displacement of [3H]-dexamethasone human glucocorticoid receptor alpha expressed in 293 MSR cells after 60 mins by scintillation counting
Assay type: cell-based
pEC50: −log10 of the molar value.

QUERY: Supply measured pEC50 of CC[C@H]1OC(=O)[C@H](C)[C@@H](O)[C@H](C)[C@@H](O[C@@H]2O[C@H](C)C[C@H](N(C)C)[C@H]2O)[C@](C)(O)C[C@@H](C)CN(CCCNC(=O)[C@H]2[C@H](C)C[C@H]3[C@@H]4CCC5=CC(=O)C=C[C@]5(C)[C@@]4(F)[C@@H](O)C[C@@]32C)[C@H](C)[C@@H](O)[C@]1(C)O in your reply.
RESULT: < 4.60

QUERY: Supply measured pEC50 of CC[C@H]1OC(=O)[C@H](C)[C@@H](O[C@H]2C[C@@](C)(OC)[C@@H](O)[C@H](C)O2)[C@H](C)[C@@H](O[C@@H]2O[C@H](C)C[C@H](N(C)C)[C@H]2O)[C@](C)(O)C[C@@H](C)CN(CCCNC(=O)[C@@]2(O)[C@H](C)C[C@H]3[C@@H]4C[C@H](F)C5=CC(=O)C=C[C@]5(C)[C@@]4(Cl)[C@@H](O)C[C@@]32C)[C@H](C)[C@@H](O)[C@]1(C)O in your reply.
RESULT: 5.42

QUERY: Supply measured pEC50 of CC[C@H]1OC(=O)[C@H](C)[C@@H](O[C@H]2C[C@@](C)(OC)[C@@H](O)[C@H](C)O2)[C@H](C)[C@@H](O[C@@H]2O[C@H](C)C[C@H](N(C)C)[C@H]2O)[C@](C)(O)C[C@@H](C)CN(CCCNC(=O)[C@@]2(O)CC[C@H]3[C@@H]4CCC5=CC(=O)C=C[C@]5(C)[C@H]4[C@@H](O)C[C@@]32C)[C@H](C)[C@@H](O)[C@]1(C)O in your reply.
RESULT: < 4.60

QUERY: Supply measured pEC50 of CC[C@H]1OC(=O)[C@H](C)[C@@H](O)[C@H](C)[C@@H](O[C@@H]2O[C@H](C)C[C@H](N(C)C)[C@H]2O)[C@](C)(O)C[C@@H](C)CN(CCCNC(=O)[C@@]2(O)[C@H](C)C[C@H]3[C@@H]4CCC5=CC(=O)CC[C@]5(C)[C@H]4[C@@H](O)C[C@@]32C)[C@H](C)[C@@H](O)[C@]1(C)O in your reply.
RESULT: < 4.60

QUERY: Supply measured pEC50 of CC[C@H]1OC(=O)[C@H](C)[C@@H](O[C@H]2C[C@@](C)(OC)[C@@H](O)[C@H](C)O2)[C@H](C)[C@@H](O[C@@H]2O[C@H](C)C[C@H](N(C)C)[C@H]2O)[C@](C)(O)C[C@@H](C)CN(CCCNC(=O)[C@@]2(O)C(C)C[C@H]3[C@@H]4CCC5=CC(=O)C=C[C@]5(C)[C@@]4(Cl)[C@@H](O)C[C@@]32C)[C@H](C)[C@@H](O)[C@]1(C)O (single isomer, unassigned) in your reply.
RESULT: < 4.60

QUERY: Supply measured pEC50 of CC[C@H]1OC(=O)[C@H](C)[C@@H](O)[C@H](C)[C@@H](O[C@@H]2O[C@H](C)C[C@H](N(C)C)[C@H]2O)[C@](C)(O)C[C@@H](C)CN(CCCNC(=O)[C@@]2(O)[C@H](C)C[C@H]3[C@@H]4C[C@H](F)C5=CC(=O)C=C[C@]5(C)[C@@]4(Cl)[C@@H](O)C[C@@]32C)[C@H](C)[C@@H](O)[C@]1(C)O in your reply.
RESULT: 5.77
